tested on: HCC-2998 colon; experiment: NCI tumour cell line growth inhibition, 48 h
For each record, write down the corresponding TGI.

### Prompt Give its TGI value. Item: CC(=O)/C(=C/c1ccccc1)C(=O)CC(C)C
### Response 21.7 µM

### Prompt Same question, C1CSCCSCCCSC2CCCCC2SC1 (stereo unspecified) this time
### Response > 100 µM

### Prompt Same question, O=[N+]([O-])C(/C=C(\Cl)[N+](=O)[O-])=C1Nc2ccccc2N1 this time
### Response > 100 µM

### Prompt Same question, CCOC(=O)CC(c1ccccc1)C(C)(C(=O)OCC)C(=O)OCC (stereo unspecified) this time
### Response > 100 µM

### Prompt Same question, CN(C)c1ccc(/C=C/c2ccc(S(N)(=O)=O)cc2)cc1 this time
### Response > 100 µM

### Prompt Same question, COc1cc2c(c(OC)c1OC)-c1ccc(O)cc1[C@@H](NC(C)=O)CC2 this time
### Response > 100 µM

### Prompt Same question, COc1ccc(C#Cc2ccc(=O)oc2-c2cc(OC)c(OC)c(OC)c2)cc1O this time
### Response 44 µM

### Prompt Same question, CSC1(C)C(=O)Nc2c(OCc3ccccc3)cc([N+](=O)[O-])cc21 (stereo unspecified) this time
### Response > 100 µM

### Prompt Same question, O=C/C1=C/C2=Cc3ccccc3C=C(/C=C(/C=O)C1)C2 this time
### Response > 100 µM

### Prompt Same question, COC(=O)C1CCN(C(=O)OC(C)(C)C)CC1 this time
### Response > 100 µM

### Prompt Same question, O=C1CSC(c2c[nH]c3ccccc23)N1c1ccc(Cl)cc1 (stereo unspecified) this time
### Response > 100 µM

### Prompt Same question, CN(CCCCCl)P(=O)(OCCS(=O)(=O)CC(NC(=O)CCC(N)C(=O)O)C(=O)NC(C(=O)O)c1ccccc1)OCC1OC(n2ccc(N)nc2=O)C(O)C1O (stereo unspecified) this time
### Response > 75 µM

### Prompt Same question, CCN(CC)CCCC(C)Nc1ccnc2cc(Cl)ccc12 (stereo unspecified) this time
### Response 48.8 µM

### Prompt Same question, O=c1c2ccc(S(=O)(=O)c3ccc4c(=O)n5c6ccccc6nc5c5cccc3c45)c3cccc(c32)c2nc3ccccc3n12 this time
### Response > 100 µM

### Prompt Same question, N#CC(/C(CCC(=O)Nc1ccc(Cl)cc1)=N/NC(=O)c1cc2ccccc2cc1O)c1ccccc1 (stereo unspecified) this time
### Response > 100 µM

### Prompt Same question, N#CCc1c(-c2ccccc2)n(S(=O)(=O)c2ccccc2)c2ccccc12 this time
### Response > 100 µM

### Prompt Same question, O=C1C(=O)N(c2ccc(Cl)cc2)C(=O)C(=O)C1c1nc2ccccc2o1 this time
### Response > 100 µM

### Prompt Same question, O=C(Cc1ccccc1F)NC1=C(Cl)C(=O)c2ccccc2C1=O this time
### Response 15.2 µM

### Prompt Same question, C=CCN1/C(=C(\C#N)c2nc3ccccc3[nH]2)Sc2c1nc[nH]c2=O this time
### Response > 100 µM

### Prompt Same question, COc1cc(Oc2c(C)c(Cl)c(OC)c(Cl)c2OC)c2c(c1Cl)COC2=O this time
### Response > 100 µM

### Prompt Same question, Cc1ccc2oc(=O)cc(/C(=C3/C=CC=N3)c3ccc[nH]3)c2c1 this time
### Response 3.12 µM

The measurements presented in this section are drawn from PubChem BioAssay (NCI).
